- Method: TD Phase (Groups 1 and 3): plasma and ocular tissue concentrations and pharmacokinetics of Compound 18 and its metabolite Compound 4 after once daily ocular instillation of Compound 18 nanosuspension for 7 days
- Type: in vivo, New Zealand white rabbits
- Settings: male, New Zealand white, rabbit, retina, other: ocular instillation (eye drop), 0.798 mg/kg/day, TD Phase, Group 1, 1 h, Mean; read-out: Final Compound 4 Retina Conc.
Experimental readout: concentration at 1 h (ng/g)
Report the value in ng/g with no unit label.

Ask: Field request: concentration at 1 h | item: CCCc1nn(C)c2c(=O)[nH]c(-c3cc(S(=O)(=O)N4CC(CCCO)C4)ccc3OCC)nc12 [Compound 4]
Reply: 50.2
